Test: Pharmacokinetic assessment in mouse plasma (LC-MS/MS)
Format: in vivo
Conditions: oral, 200 mg/kg, dose 200 mpk, read-out: AUC0–8h
measurement name: AUC(0-t) (ng·h/mL)
Numbers only here, please. The scale is ng·h/mL.

## Input Query AUC(0-t) for O=C(CCCCCCNC(=O)c1cnc(N(c2ccccc2)c2ccccc2)nc1)NO
## Output 234

----------
Test: Pharmacokinetic assessment in mouse plasma (LC-MS/MS)
Format: in vivo
Conditions: oral, 100 mg/kg, dose 100 mpk
measurement name: Cmax (ng/mL)
# unit: ng/mL | format: bare number

## Input Consider the compound O=C(CCCCCCNC(=O)c1cnc(N(c2ccccc2)c2ccccc2)nc1)NO and give its recorded Cmax.
## Output 29.8
